Values compiled from the supplement of paper PMC10567573.

B1: CDC14A (parent)
chain: LWVQGDIFRSKLKNRPSSEGSINK

- Variants of: B1
- ASSAY: protein stability index of a GFP-peptide fusion (GPS, HEK-293T) (PSI 1-6); higher = more stable;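 also: lentivirally expressed fusions sorted by FACS into six bins by GFP to DsRed ratio, PSI derived from sequencing read proportions per bin multiplied by bin number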
- SETTINGS: c terminus: a fixed tail appended
We begin with a simple list: items and their reported protein stability index.
MEASURE: protein stability index

- VARIANT DESIGNATION: "W2G"
  RESULT VALUE: 4.04
- VARIANT DESIGNATION: "L12T"
  RESULT VALUE: 3.17
- VARIANT DESIGNATION: "K13L"
  RESULT VALUE: 2.94
- VARIANT DESIGNATION: "P16G"
  RESULT VALUE: 2.02
- VARIANT DESIGNATION: "D6A"
  RESULT VALUE: 2.27
- VARIANT DESIGNATION: "W2L"
  RESULT VALUE: 2.98
- VARIANT DESIGNATION: "S10V"
  RESULT VALUE: 2.92
- VARIANT DESIGNATION: "L12G"
  RESULT VALUE: 2.83
- VARIANT DESIGNATION: "G5Q"
  RESULT VALUE: 2.76
- VARIANT DESIGNATION: "S21L"
  RESULT VALUE: 2.24
- VARIANT DESIGNATION: "K11R"
  RESULT VALUE: 2.72
- VARIANT DESIGNATION: "L1G"
  RESULT VALUE: 3.03
- VARIANT DESIGNATION: "R9H"
  RESULT VALUE: 2.55
- VARIANT DESIGNATION: "S21E"
  RESULT VALUE: 3.65
- VARIANT DESIGNATION: "E19I"
  RESULT VALUE: 2.24
- VARIANT DESIGNATION: "E19N"
  RESULT VALUE: 2.48
- VARIANT DESIGNATION: "S17H"
  RESULT VALUE: 2.77
- VARIANT DESIGNATION: "R15K"
  RESULT VALUE: 3
- VARIANT DESIGNATION: "K11E"
  RESULT VALUE: 2.63
- VARIANT DESIGNATION: "I22C"
  RESULT VALUE: 2.59
- VARIANT DESIGNATION: "K13Q"
  RESULT VALUE: 2.69
- VARIANT DESIGNATION: "S10R"
  RESULT VALUE: 3.23
- VARIANT DESIGNATION: "L12N"
  RESULT VALUE: 2.82
- VARIANT DESIGNATION: "E19P"
  RESULT VALUE: 1.95
- VARIANT DESIGNATION: "G5N"
  RESULT VALUE: 2.63
- VARIANT DESIGNATION: "S17N"
  RESULT VALUE: 3.48
- VARIANT DESIGNATION: "P16M"
  RESULT VALUE: 2.17
- VARIANT DESIGNATION: "F8C"
  RESULT VALUE: 3.14
- VARIANT DESIGNATION: "G5A"
  RESULT VALUE: 2.06
- VARIANT DESIGNATION: "Q4I"
  RESULT VALUE: 2.11
- VARIANT DESIGNATION: "K11S"
  RESULT VALUE: 2.99
- VARIANT DESIGNATION: "L1A"
  RESULT VALUE: 3.37
- VARIANT DESIGNATION: "S18G"
  RESULT VALUE: 4.75
- VARIANT DESIGNATION: "K24P"
  RESULT VALUE: 2.46
- VARIANT DESIGNATION: "G5W"
  RESULT VALUE: 1.87
- VARIANT DESIGNATION: "R9N"
  RESULT VALUE: 3.4
- VARIANT DESIGNATION: "N14R"
  RESULT VALUE: 1.91
- VARIANT DESIGNATION: "R9A"
  RESULT VALUE: 3.05
- VARIANT DESIGNATION: "K24Q"
  RESULT VALUE: 2.41
- VARIANT DESIGNATION: "S10N"
  RESULT VALUE: 2.48
- VARIANT DESIGNATION: "F8Y"
  RESULT VALUE: 3.25
- VARIANT DESIGNATION: "R15V"
  RESULT VALUE: 2.78
- VARIANT DESIGNATION: "R15E"
  RESULT VALUE: 3.02
- VARIANT DESIGNATION: "S17E"
  RESULT VALUE: 2.43
- VARIANT DESIGNATION: "R9K"
  RESULT VALUE: 3.02
- VARIANT DESIGNATION: "K13H"
  RESULT VALUE: 2.55
- VARIANT DESIGNATION: "N14H"
  RESULT VALUE: 2.26
- VARIANT DESIGNATION: "F8M"
  RESULT VALUE: 2.42
- VARIANT DESIGNATION: "R15Y"
  RESULT VALUE: 3.17
- VARIANT DESIGNATION: "N23Q"
  RESULT VALUE: 2.31
- VARIANT DESIGNATION: "W2N"
  RESULT VALUE: 4.07
- VARIANT DESIGNATION: "S21W"
  RESULT VALUE: 2.42
- VARIANT DESIGNATION: "R15S"
  RESULT VALUE: 2.66
- VARIANT DESIGNATION: "S18Y"
  RESULT VALUE: 2.01
- VARIANT DESIGNATION: "D6Y"
  RESULT VALUE: 2.45
- VARIANT DESIGNATION: "K13A"
  RESULT VALUE: 2.38
- VARIANT DESIGNATION: "E19K"
  RESULT VALUE: 2.21
- VARIANT DESIGNATION: "I7K"
  RESULT VALUE: 3.54
- VARIANT DESIGNATION: "S21R"
  RESULT VALUE: 1.73
- VARIANT DESIGNATION: "P16V"
  RESULT VALUE: 1.64
- VARIANT DESIGNATION: "L1S"
  RESULT VALUE: 4.05
- VARIANT DESIGNATION: "S17K"
  RESULT VALUE: 2.45
- VARIANT DESIGNATION: "R15I"
  RESULT VALUE: 2.52
- VARIANT DESIGNATION: "Q4Y"
  RESULT VALUE: 1.95
- VARIANT DESIGNATION: "K13V"
  RESULT VALUE: 2.41
- VARIANT DESIGNATION: "W2A"
  RESULT VALUE: 4.05
- VARIANT DESIGNATION: "D6S"
  RESULT VALUE: 2.28
- VARIANT DESIGNATION: "S10C"
  RESULT VALUE: 2.3
- VARIANT DESIGNATION: "F8D"
  RESULT VALUE: 3.67
- VARIANT DESIGNATION: "D6T"
  RESULT VALUE: 1.84
- VARIANT DESIGNATION: "S17I"
  RESULT VALUE: 2.08
- VARIANT DESIGNATION: "D6C"
  RESULT VALUE: 1.8
- VARIANT DESIGNATION: "R9Q"
  RESULT VALUE: 2.91
- VARIANT DESIGNATION: "F8E"
  RESULT VALUE: 4.43
- VARIANT DESIGNATION: "D6N"
  RESULT VALUE: 2.83
- VARIANT DESIGNATION: "G20S"
  RESULT VALUE: 2.58
- VARIANT DESIGNATION: "D6E"
  RESULT VALUE: 2.63
- VARIANT DESIGNATION: "S10I"
  RESULT VALUE: 2.31
- VARIANT DESIGNATION: "W2E"
  RESULT VALUE: 5.28
- VARIANT DESIGNATION: "I7M"
  RESULT VALUE: 2.31
- VARIANT DESIGNATION: "I7F"
  RESULT VALUE: 2.01
- VARIANT DESIGNATION: "D6H"
  RESULT VALUE: 2.24
